Can you tell me self-cleavage for the items I'm about to list?
B1: HDV Ribozyme (parent)
chain: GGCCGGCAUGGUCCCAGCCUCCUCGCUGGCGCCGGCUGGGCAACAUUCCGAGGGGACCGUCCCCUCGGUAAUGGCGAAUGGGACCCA

variants of: B1; experiment: self-cleavage, relative activity (ratio to wild type); higher = more cleavage; co-transcriptional
Give bare numbers.

Would you please look over these solved cases?
[[record]]
mutation_name = "G10A A71G"
recorded_measurement = 0.703

[[record]]
mutation_name = "A43C U72C"
recorded_measurement = 0.578

[[record]]
mutation_name = "A43U G73A"
recorded_measurement = 0.322

[[record]]
mutation_name = "C7A C41U"
recorded_measurement = 0.489

[[record]]
mutation_name = "G76C C84G"
recorded_measurement = 0.618

[[record]]
mutation_name = "G52A C61G"
recorded_measurement = 0.897


// each variant listed below needs its self-cleavage
1. C49U G54A
2. A42U C84U
3. C4A A71U

Result:
1: 1.02; 2: 0.181; 3: 0.259

Give self-cleavage for each listed item.
1. G17C C22U
2. C14G G74C
3. C44A G53C
4. C18G G50U
5. C7U C58U
6. A83C C84A
7. G52C C86U

Result:
1. 0.0639
2. 0.0639
3. 0.686
4. 0.196
5. 1.19
6. 0.78
7. 1.2

For each of the variants below, state self-cleavage.
1. G17U G34A
2. G5A G81A
3. C30A U60G
4. G54C G74A
5. U23C A51G
6. G17A C44U
7. C13G A78U
8. U20A G53U

Result:
[0.13, 0.0978, 0.502, 0.314, 0.978, 0.231, 0.185, 0.0959]

Below is a list of variants. For each, state its recorded self-cleavage.
1. G2U C36U
2. C49G G68C
3. U20A C64A
4. C41U G82A
5. G34C U47G
6. C36A A42G

Result:
[0.0308, 0.458, 0.113, 0.246, 0.133, 0.113]

Source of measurements: the RNAGym collection of RNA variant scans (doi:10.7554/elife.80360)
